B1: DnaJ homolog subfamily C member 5, residues 16 to 77; numbered along this chain, Q9H3Z4 (parent)
chain: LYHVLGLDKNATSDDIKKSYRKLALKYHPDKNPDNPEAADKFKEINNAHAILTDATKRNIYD

# Variants of: B1
# EXPERIMENTAL DETAILS: abundance fitness (aPCA) (normalised: wild type 0, dead -1); higher = more abundant; growth selection in yeast, the domain comes from the species named
# EXPERIMENTAL CONDITIONS: Homo sapiens
Please respond with reported abundance fitness for every item in the list.
One number for each entry.

Known abundance fitness results, listed for orientation:
| SEQUENCE | MEASURED VALUE |
| --- | --- |
| LYHVLGLDKNATSDDIKCSYRKLALKYHPDKNPDNPEAADKFKEINNAHAILTDATKRNIYD [K18C] | -0.101 |
| LYHVLGLDKNATSDDIKKSYRKLALKYHPNKNPDNPEAADKFKEINNAHAILTDATKRNIYD [D30N] | -0.018 |
| LYHVLGLDKNATSDDIKKSYRKLALKYHPDKNPDNPEAADKFKEINNAHAILIDATKRNIYD [T53I] | -0.286 |
| LYHVLGLDKNATSDDIKKSYRKLALKYHPDKNPDNPEAADKFKEINNAHAIVTDATKRNIYD [L52V] | -0.524 |
| LYHVLGLDKNATSDDIKKSYRKLALKYHPDHNPDNPEAADKFKEINNAHAILTDATKRNIYD [K31H] | -0.195 |

Field: abundance fitness. Fill in for each record below.
1. LYHVLGLDKNATSDDIKKSYRKLALKYHPDKNPDNPEAADKFKEINNAHAILTDATKRQIYD [N59Q]
2. LYHVLGLDKNATSDDIKKVYRKLALKYHPDKNPDNPEAADKFKEINNAHAILTDATKRNIYD [S19V]

Given back:
0.007
-0.187

Field: abundance fitness. Fill in for each record below.
1. LYHVLGLDKNATSDDIKKSYRKLALKYHPDKNPDNPEAADKFKEINNAHAILTDATKHNIYD [R58H]
2. LYHVLGLDKNATSDRIKKSYRKLALKYHPDKNPDNPEAADKFKEINNAHAILTDATKRNIYD [D15R]

Given back:
-0.275
-0.693

Field: abundance fitness. Fill in for each record below.
1. LYHVLGLDKNATSDDIKKSYRKLALKYHPDKNPDNPEAADKFKEINNAHAILTDATFRNIYD [K57F]
2. LYHVLGLDTNATSDDIKKSYRKLALKYHPDKNPDNPEAADKFKEINNAHAILTDATKRNIYD [K9T]

Given back:
1: -1.01; 2: -0.27

Field: abundance fitness. Fill in for each record below.
1. LYHVLGLDKNATSDDIKKSYRKLALKYHPDKNPDNPEAADKFNEINNAHAILTDATKRNIYD [K43N]
2. LYHVLGLDKNAESDDIKKSYRKLALKYHPDKNPDNPEAADKFKEINNAHAILTDATKRNIYD [T12E]
3. LYHVLGLDKNATSDDIKKSYRKLALKYHPDKNPGNPEAADKFKEINNAHAILTDATKRNIYD [D34G]
4. LYHVLGLDKNATSDDIKKSYRKLALKYHPDKNPDNPEASDKFKEINNAHAILTDATKRNIYD [A39S]
5. LYHVLGLDKNATSDDIKKSYRKLALKYHPDKNPDNPEAADKFKEINNAHAILTDATKRAIYD [N59A]
6. LYHVLGLDKNATSDDIKKSYRKLALKYHPDKNPDNPEAADKFKEINNAHAILTDATKLNIYD [R58L]
7. LYHVLGLDKNATIDDIKKSYRKLALKYHPDKNPDNPEAADKFKEINNAHAILTDATKRNIYD [S13I]
8. LYHVLGLDKNATSDDIKKSYRKLAKKYHPDKNPDNPEAADKFKEINNAHAILTDATKRNIYD [L25K]

Given back:
1. -0.23
2. -0.573
3. 0.068
4. -0.176
5. 0.197
6. -0.43
7. 0.046
8. -0.159

Field: abundance fitness. Fill in for each record below.
1. LYHVLGLDKNATSDDIKKSYRKLALKYHPDKNPDNPEAADKFKEINNAHAILTDATKRNIND [Y61N]
2. LYHKLGLDKNATSDDIKKSYRKLALKYHPDKNPDNPEAADKFKEINNAHAILTDATKRNIYD [V4K]
3. LYHVLGLDKNATSDDIKKSYRKLALKYHPDKNPDNPEYADKFKEINNAHAILTDATKRNIYD [A38Y]
4. LYHVLELDKNATSDDIKKSYRKLALKYHPDKNPDNPEAADKFKEINNAHAILTDATKRNIYD [G6E]
5. LYHVLGLDKNATSDDIKKSYRKLALKYHPDKNPDNPEAADKFKEIRNAHAILTDATKRNIYD [N46R]

Given back:
[-0.199, -0.646, -0.132, -0.866, -0.017]

Field: abundance fitness. Fill in for each record below.
1. LYHVLGLDKNATSDDIKKSYRKLALKYHPDKNPDNPEAADKFKEINNAHAILTDATKDNIYD [R58D]
2. LYHVLGLDKNATSDDIKKSYRKFALKYHPDKNPDNPEAADKFKEINNAHAILTDATKRNIYD [L23F]
3. LYHVLGLDKNATSDDIKKSYRKLALKYHPDKNPDNPEAADKFKEIHNAHAILTDATKRNIYD [N46H]
4. LYHVLGLDKNATSDDIKKSYRKLRLKYHPDKNPDNPEAADKFKEINNAHAILTDATKRNIYD [A24R]
5. LYHVLGLDKNATSDDYKKSYRKLALKYHPDKNPDNPEAADKFKEINNAHAILTDATKRNIYD [I16Y]
6. LYHVLGLDKNATSDDIKKSYRKLALKYHPDKTPDNPEAADKFKEINNAHAILTDATKRNIYD [N32T]
7. LYHVLGLDKNATSDDIKKSYRKLALKYHPDKNPDNPEAQDKFKEINNAHAILTDATKRNIYD [A39Q]

Given back:
1. -0.348
2. -0.536
3. -0.081
4. -0.041
5. -0.649
6. -0.251
7. -0.227

Asked: // returns reported abundance fitness for input LYHVLGLDKNATTDDIKKSYRKLALKYHPDKNPDNPEAADKFKEINNAHAILTDATKRNIYD [S13T]
Given back: 0.055
